Test: gradient 5% acetonitrile 3 min, to 50% in 2 min, to 85% in 15 min, held 3 min, 100 µL/min
Details: column: Zorbax Extend-C18 2.1 x 50 mm; eluents: water / acetonitrile, 0.1% formic acid
recorded endpoint: RP-LC retention time (s)

OCc1ncc(-c2ccccc2)s1: 762
CCN1c2ccc(C)cc2C(=O)NC12CCN(C(=O)c1ccc(C)cc1)CC2: 849
Cc1ccc(S(=O)(=O)C2=C(O)C(=O)N(Cc3ccco3)C2c2ccc(F)cc2)cc1 (stereo not given): 931
CCCN1CCN(c2cc(C(=O)O)c3cc(NS(=O)(=O)c4ccc(C)cc4)ccc3n2)CC1: 638
CCCCC(=O)N1CC(c2nc(-c3ccc(F)cc3)no2)C2(CCOCC2)C1 (stereo not given): 904
COc1ccc(Cl)cc1S(=O)(=O)N1CCC(C(=O)NCCc2csc(C)n2)CC1: 732
O=C(Nc1ccccc1)Nc1ccccc1: 767
O=C(c1cc(F)ccc1F)N1CCN(c2cc(-c3ccc(F)cc3)[nH]n2)CC1: 807
CCn1c(=O)c(N2CCC(C(=O)NC3CCCCCCC3)CC2)nc2cccnc21: 1080
COC(=O)c1c(NCc2cc(F)cc(F)c2)c2cccc(Cl)c2[nH]c1=O: 808

* * *

Assay: gradient 5% acetonitrile 3 min, to 50% in 2 min, to 85% in 15 min, held 3 min, 100 µL/min
Conditions: column: Zorbax Extend-C18 2.1 x 50 mm; eluents: water / acetonitrile, 0.1% formic acid
recorded endpoint: RP-LC retention time (s)

Cn1ncc2c(N3CCSCC3)nc(C(=O)NCc3ccccn3)nc21: 592
Cc1ccc(-c2nc3nc(C)cc(C)n3c2Nc2cccc(C(F)(F)F)c2)cc1: 817
CCn1cnc(S(=O)(=O)N2CCC(C(=O)NC3CCCCCCC3)CC2)c1: 769
CN(CCc1noc(C2CN(Cc3ccc(Cl)c(F)c3)C2)n1)S(C)(=O)=O: 633
CCCN1C(=O)c2cccnc2Sc2cc(C(=O)NC3CCCC3)ccc21: 837

* * *

Assay: gradient 5% acetonitrile 3 min, to 50% in 2 min, to 85% in 15 min, held 3 min, 100 µL/min
Details: column: Zorbax Extend-C18 2.1 x 50 mm; eluents: water / acetonitrile, 0.1% formic acid
recorded endpoint: RP-LC retention time (s)

Cc1nn2c(S(=O)(=O)N3CCC(C)CC3)c(C)nc2s1: 838
COc1ccc(CNC(=O)C2CCCN(c3nc4ccccc4n(Cc4ccccc4)c3=O)C2)cc1 (centres undefined): 1090
CCc1noc(NC(C)=O)c1-c1ccc(OC)c(S(=O)(=O)Nc2ccc(C)c(C)c2)c1: 846
O=C(Nc1cccc(OCc2nnc(-c3ccccc3)o2)c1)C1COc2ccccc2O1 (centres undefined): 1010
O=C(NCc1ccc2c(c1)OCO2)C1CCN(C(=O)c2ccccc2)CC1: 706

P: CCn1c(C(=O)NCc2ccccc2OC)cc2sc(Cl)cc21
Q: CCn1ccc2cc(S(=O)(=O)N3CCCC(C(=O)NCCCN4CCOCC4)C3)ccc21 (centres undefined)
Task: Hi! Which is lower in terms of RP-LC retention time, the first one P or the second one Q ? Give the label under which the chosen entry appears.
Output: Q
(Q: 648 s, P: 1130 s)

1: c1ccc(CSc2nc3ncncc3[nH]2)cc1
2: CCOc1ccc(N2C(=O)C3N=NN(Cc4nc(-c5ccc(C)c(C)c5)no4)C3C2=O)cc1 (centres undefined)
Task: Lab note: check whether 1 or 2 has the lower measured RP-LC retention time. Select an item and report its label.
Output: 1
(1: 719 s, 2: 1110 s)

* * *

Assay: gradient 5% acetonitrile 3 min, to 50% in 2 min, to 85% in 15 min, held 3 min, 100 µL/min
Settings: column: Zorbax Extend-C18 2.1 x 50 mm; eluents: water / acetonitrile, 0.1% formic acid
recorded endpoint: RP-LC retention time (s)

// worked examples, RP-LC retention time included
O=C(CSc1ccc(N2CCCC(C(=O)NC3CC3)C2)nn1)Nc1ccc(F)cc1 (centres undefined): 629
Cc1ccc(S(=O)(=O)N2CCC(c3nc(C(=O)N4CCOCC4)c(C)o3)CC2)cc1C: 870
CCN1C(=O)c2cccnc2Sc2cc(CNC(=O)c3sccc3C)ccc21: 779

P: Cc1nn2c(CNC(=O)c3ccccc3)c(-c3ccccc3)nc2s1
Q: CC(C)C(=O)Nc1ccc(-c2nc(-c3ccc(Cl)cc3)no2)cc1
R: O=C([C@@H]1C[C@H](Oc2cccnc2)CN1C(=O)c1ccc2ncccc2c1)N1CCCC1
Task: Sequence the entries by RP-LC retention time, beginning with the highest number. Response format: the labels, sorted as the prompt asks.
Output: Q, P, R
(Q: 1200 s, P: 810 s, R: 544 s)

P: Cc1cccc(NC(=O)C2CCN(S(C)(=O)=O)c3ccccc3O2)c1 (centres undefined)
Q: COc1ccc(NC(=O)CN2CCc3[nH]c4c(C)c(C)ccc4c(=O)c3C2)c(OC)c1
Task: Which gives the smaller RP-LC retention time number: P or Q ? Mark your answer with the label of the selected entry.
Output: Q
(Q: 626 s, P: 895 s)

* * *

Assay: gradient 5% acetonitrile 3 min, to 50% in 2 min, to 85% in 15 min, held 3 min, 100 µL/min
Details: column: Zorbax Extend-C18 2.1 x 50 mm; eluents: water / acetonitrile, 0.1% formic acid
recorded endpoint: RP-LC retention time (s)

CCN1c2ccc(F)cc2C(=O)NC12CCN(C(=O)c1ccc(C)cc1C)CC2: 861
COc1cccc(-c2cc(C(=O)N3CCOCC3)[nH]n2)c1: 658
COc1ccccc1NC(=O)N1CCC(c2cc(N)on2)CC1: 678
CCCN1CCN(S(=O)(=O)c2cc(-c3nnc(C(C)C)o3)co2)CC1: 618
CCC(C)(C)C(=O)N1CCCC1Cc1noc(-c2cccnc2)n1 (stereo not given): 839

* * *

Experiment: gradient 5% acetonitrile 3 min, to 50% in 2 min, to 85% in 15 min, held 3 min, 100 µL/min
Settings: column: Zorbax Extend-C18 2.1 x 50 mm; eluents: water / acetonitrile, 0.1% formic acid
recorded endpoint: RP-LC retention time (s)

COC(=O)c1ccccc1OCc1cc(=O)oc2ccc(C)cc12: 983
O=C(COc1ccc(Cl)cc1Cl)Nc1nc(-c2ccc(F)cc2)cs1: 1250
O=C(c1ccc(N2CCCC2=O)cc1)N1CCCn2nc(-c3ccc(F)cc3)cc2C1: 708
CCN1CCN(C(=O)CN2C(=O)CSc3ccc(C(=O)N4CCCCC4)cc32)CC1: 608
CN1C(=O)CS(=O)C12CCN(C(=O)Nc1ccccc1)CC2 (centres undefined): 599
Cc1nc2nc(-c3ccccc3)nn2c(C)c1CC(=O)N1CCCC1: 679

P: COc1ccc(N2CCN(C(=O)CC(C)S(=O)(=O)c3ccc4c(c3)CCN4C(C)=O)CC2)cc1 (centres undefined)
Q: CC1Oc2ccccc2N(Cc2nc(-c3ccc(Br)cc3)no2)C1=O (centres undefined)
Task: Response body: label of entry with the larger RP-LC retention time; valid values P , Q . Record your answer as the label of the chosen record.
Output: Q

* * *

Test: gradient 5% acetonitrile 3 min, to 50% in 2 min, to 85% in 15 min, held 3 min, 100 µL/min
Settings: column: Zorbax Extend-C18 2.1 x 50 mm; eluents: water / acetonitrile, 0.1% formic acid
recorded endpoint: RP-LC retention time (s)

Before answering, review these 3 worked examples.
Cc1cccc(C)c1NC(=O)CN1CCCC1: 633
Brc1cncc(-c2nc(-c3ccc4c(c3)ncn4CCN3CCCC3)no2)c1: 631
CC1=C(c2ccc(F)cc2)S(=O)(=O)N=C1N1CCCN(C(=O)c2ccc(C)s2)CC1: 857

1: O=C(CCc1c(-c2ccc(Br)cc2)nc2ccccn12)NC1CCCC1
2: COc1c(C(=O)NC2CC2)sc2ccc(Cl)cc12
Task: Record comparison, field RP-LC retention time: mark the lower of 1 and 2 . Indicate which entry you chose by stating its label.
Output: 1
(1: 667 s, 2: 965 s)

* * *

Test: gradient 5% acetonitrile 3 min, to 50% in 2 min, to 85% in 15 min, held 3 min, 100 µL/min
Conditions: column: Zorbax Extend-C18 2.1 x 50 mm; eluents: water / acetonitrile, 0.1% formic acid
recorded endpoint: RP-LC retention time (s)

1: CCC(=O)Nc1ccc(-n2cnc(C(=O)N3CC(C)CC(C)C3)c2)nc1 (stereo not given)
2: CC1CCN(S(=O)(=O)c2ccc(-c3nnc(C(=O)NC4CCCCC4)o3)cc2)CC1
Task: Lab note: check whether 1 or 2 shows the higher recorded RP-LC retention time. Output the label that corresponds to your choice.
Output: 2
(2: 1120 s, 1: 772 s)

* * *

Test: gradient 5% acetonitrile 3 min, to 50% in 2 min, to 85% in 15 min, held 3 min, 100 µL/min
Conditions: column: Zorbax Extend-C18 2.1 x 50 mm; eluents: water / acetonitrile, 0.1% formic acid
recorded endpoint: RP-LC retention time (s)

Study these solved cases before continuing.
COc1cccc(CNC(=O)CSc2nccnc2N2CCSCC2)c1OC: 824
CC(C)C(=O)Nc1nnc2n1CCS2: 519
CCN(CC)CCNC(=O)CN1N=C(c2ccc(Cl)cc2)CCC1=O: 625

a: CCCCCNC(=O)C1CCCN(S(=O)(=O)c2cc(Cl)ccc2OC)C1 (stereo not given)
b: CCOC(=O)N1CCN(C(=S)Nc2ccc3nc(N4CCN(C)CC4)cc(C)c3c2)CC1
Task: Of a and b , whose reported RP-LC retention time is the larger number? // respond with label for picked entry
Output: a
